# system-under-test: Human TRPC6 (Homo sapiens)
# Construct: expressed in transfected cells
# experiment-description: Evaluation of TRPC6 channel inhibitory activity (1), FLIPR Calcium 5 Assay Kit, OAG stimulation (Compound Nos. 1-1293)
# Type: cell-based
# particulars: Human TRPC6 stably-expressing cells, OAG 30 μM, FLIPR Calcium 5 Assay Kit; read-out: Inhibitory activity (pIC50 class) (converted)
experimental-endpoint: IC50

Cc1cnc(-c2cc(Oc3cc(C#N)ccc3-c3ncc(CN)cn3)n(C)n2)s1 [compound 960]	0.01 to 1 µM
Cc1nc(C(F)(F)F)cn1Cc1cc(C#N)ccc1-c1ncc(CCN)cn1 [compound 1173]	< 0.01 µM
Cc1nc(Oc2cc(C#N)ccc2-c2ncc(CN)cn2)cc(OC2COC2)n1 [compound 895]	> 1 µM
Cc1nc(Oc2cc(C#N)ccc2-c2ccc([C@H](O)CN)cn2)cc(N2CCCC2)n1 [compound 507]	< 0.01 µM
Cn1nc(-c2ccccc2)cc1Oc1cc(C#N)ccc1-c1ncc(C(O)CN)cn1 (centres unmarked) [Compound 248]	< 0.01 µM
N#Cc1ccc(-c2ccc(CCN)cc2)c(C(=O)c2cnnc(N3CCOCC3)c2)c1 [compound 1079]	< 0.01 µM
Cc1nc(Oc2cc(C#N)ccc2-c2ncc(CN)cn2)cc(N2C=NCCC2)n1 [compound 850]	< 0.01 µM
Cn1nc(C2CC2)cc1Oc1cc(C#N)ccc1-c1ccc(CN)n2ccnc12 [compound 493]	< 0.01 µM

q: Could you tell me which IC50 is on file for Cc1nc(Oc2cc(C#N)ccc2-c2ncc(CCN)cn2)cc(-c2ccccc2C#N)n1 [Compound 295] ?
a: < 0.01 µM

q: For CCN(CC(F)F)c1cc(Oc2cc(C#N)ccc2-c2ncc(CN)cn2)n(C)n1 [compound 874] , what is its reported IC50?
a: < 0.01 µM

---

# system-under-test: Human TRPC6 (Homo sapiens, UniProt Q9Y210)
# Construct: expressed in transfected cells
# Sequence (Q9Y210 1-931): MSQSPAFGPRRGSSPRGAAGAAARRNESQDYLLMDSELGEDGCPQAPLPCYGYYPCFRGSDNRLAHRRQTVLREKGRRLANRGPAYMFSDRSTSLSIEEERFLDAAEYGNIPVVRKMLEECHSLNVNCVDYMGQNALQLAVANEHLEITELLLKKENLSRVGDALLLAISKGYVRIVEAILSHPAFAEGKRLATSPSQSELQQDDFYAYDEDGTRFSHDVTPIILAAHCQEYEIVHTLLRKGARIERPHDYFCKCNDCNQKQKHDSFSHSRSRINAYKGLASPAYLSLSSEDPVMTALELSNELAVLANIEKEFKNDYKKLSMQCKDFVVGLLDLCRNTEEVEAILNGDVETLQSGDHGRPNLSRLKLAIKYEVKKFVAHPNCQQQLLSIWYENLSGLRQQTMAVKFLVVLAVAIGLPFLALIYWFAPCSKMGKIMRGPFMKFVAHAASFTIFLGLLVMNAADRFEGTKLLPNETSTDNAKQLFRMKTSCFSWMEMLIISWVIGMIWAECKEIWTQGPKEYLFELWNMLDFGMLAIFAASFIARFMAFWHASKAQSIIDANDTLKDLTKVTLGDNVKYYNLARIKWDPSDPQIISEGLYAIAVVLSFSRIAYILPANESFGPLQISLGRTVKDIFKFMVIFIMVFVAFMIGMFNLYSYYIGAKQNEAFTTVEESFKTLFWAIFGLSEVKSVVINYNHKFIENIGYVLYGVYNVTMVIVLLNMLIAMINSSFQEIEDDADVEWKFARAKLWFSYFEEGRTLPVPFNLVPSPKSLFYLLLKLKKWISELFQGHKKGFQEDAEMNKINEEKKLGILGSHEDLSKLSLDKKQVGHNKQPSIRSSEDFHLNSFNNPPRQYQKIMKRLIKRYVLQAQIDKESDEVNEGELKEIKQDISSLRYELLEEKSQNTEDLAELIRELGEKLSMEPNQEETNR
# experiment-description: Evaluation of TRPC6 channel inhibitory activity (1), FLIPR Calcium 5 Assay Kit, OAG stimulation (Compound Nos. 1-1293)
# Assay type: cell-based
# particulars: Human TRPC6 stably-expressing cells, OAG 30 μM, FLIPR Calcium 5 Assay Kit; read-out: Inhibitory activity (pIC50 class) (converted)
Quick reference: IC50 of the listed items.

Cc1nc(Oc2cc(C#N)ccc2-n2cc(N3CCNCC3=O)cn2)cc(C2CCCC2)n1	> 1 µM
Cc1nc(C(F)F)cn1Cc1cc(C#N)ccc1-c1ncc(CCN)cn1	0.01 to 1 µM
CN(CC(F)(F)F)c1cc(Oc2cc(C#N)ccc2-c2ncc(CCN)cn2)n(C)n1	< 0.01 µM

Now consider the entry below.
q: Can you look up the measured IC50 of CCN(CC(F)F)c1cc(Oc2cc(F)ccc2-c2ccc(CCN)cn2)n(C)n1 for me?
a: < 0.01 µM

Origin of measurements: patent US20230167073A1
